test.description: kanamycin survival loss of SKKanGAS strain – BacTiter-Glo luminescence, streptokinase expression inhibitor project, primary screen (AID 1662);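 also: strain carries kanamycin resistance gene driven by streptokinase promoter and grows in 40 µg/ml kanamycin; loss of luminescence reflects streptokinase promoter inhibition or plain growth inhibition; 0% = median of DMSO wells and 100% = positive control at its reference dose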
condition: S. pyogenes SKKanGAS, kanamycin growth, 6 h, at 7.5 µM
Out of some 300,000 compounds screened, about 4,000 (1.3%) were called active.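 The calls were made as follows: active = mean replicate score, as percent of positive control median, at least 50; inconclusive = mean below 50 but one replicate at or above 50; inactive = mean and every replicate below 50.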 The entries come from a sample that favours actives as a whole.
Allowed answers: active, inactive

As a guide, the following entries are already answered.
>>> print(df.to_string())
                                   compound  assigned_label
0           CC(C)Cn1c(CCC(=O)O)ccc1-c1cccs1        inactive
1  COc1ccc(C(=O)NC(=S)NNC(=O)CCc2ccccc2)cc1        inactive
2  O=C(/C=C/c1ccc([N+](=O)[O-])o1)NNC(=O)c1ccc(F)cc1          active
3  CC(C)C1N=C2c3ccccc3N=C(SCC(=O)c3ccc(O)c(O)c3)N2C1=O (stereo unspecified)        inactive
4     O=C(Nc1cccc(Cl)c1)Nc1nnc(-c2ccccc2)o1        inactive
5  COc1ccc(NC(=O)CN(C)C(=O)/C=C/c2cn(Cc3ccccc3)nc2-c2cccnc2)cc1        inactive
6  Cc1cc(C(F)(F)F)nn1-c1nc(-c2ccco2)cc(C(F)(F)F)n1        inactive
7  COC(=O)CNS(=O)(=O)c1ccc(Cc2ccc(S(=O)(=O)NCC(=O)OC)cc2)cc1        inactive
8  O=C(NC(Cc1c[nH]c2ccccc12)C(=O)N/N=C/c1ccc(Br)cc1)c1cccs1 (stereo unspecified)          active
9  CC(=O)NC(Cc1c[nH]c2ccccc12)C(=O)O (stereo unspecified)        inactive

// return assay outcome for CCOC(=O)c1cnc(-c2ccccc2)nc1Oc1ccc(C)cc1
inactive

// return assay outcome for CCOC(=O)c1cnc(-n2nc(C)cc2C)nc1Nc1cccc(C(C)=O)c1
inactive

// return assay outcome for COc1ccc(C(=O)NNC(=S)NC(=O)c2ccccc2[N+](=O)[O-])cc1
inactive

// return assay outcome for Cc1nn(-c2ccccc2)c2sc(C(=O)N(Cc3ccco3)C(C)C(=O)NC(C)(C)C)cc12 (stereo unspecified)
inactive

// return assay outcome for CNC(=S)NNC(=O)c1ccc(N(C)C)cc1
inactive

// return assay outcome for CCOC(=O)C1=C(C)N=C2c3ccccc3C(=O)C2C1c1ccc(Br)cc1 (stereo unspecified)
inactive

// return assay outcome for O=C1c2ccccc2C2=Nc3ccccc3SC(c3ccccc3F)C12 (stereo unspecified)
active

// return assay outcome for CCOC(=O)c1cnc(-n2nc(C)cc2C)nc1NNc1cc(C)nc(-c2ccccc2)n1
active

----------
test.description: kanamycin survival loss of SKKanGAS strain – BacTiter-Glo luminescence, streptokinase expression inhibitor project, primary screen (AID 1662);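 also: strain carries kanamycin resistance gene driven by streptokinase promoter and grows in 40 µg/ml kanamycin; loss of luminescence reflects streptokinase promoter inhibition or plain growth inhibition; 0% = median of DMSO wells and 100% = positive control at its reference dose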
condition: S. pyogenes SKKanGAS, kanamycin growth, 6 h, at 7.5 µM, stronger effect = higher value
Screen size: about 300,000 compounds; about 4,000 (1.3%) were called active. Many of the other results were omitted from the sample, so actives are more common in it than they were.
Catalogue of compounds with associated inhibition
Hi! Could you send only the number? It should be in %, unit omitted.

Illustrative cases are given below, each with its answer.
>>> print(df.to_string())
                                   compound  measurement_kind  measured
0  Cc1ccc(S(=O)(=O)/N=C(\CN2CCOCC2)N2CCOCC2)cc1        inhibition      2.49
1  CN(C)CCn1c2c(c(SCC(=O)Nc3ccccc3C(F)(F)F)nc1=O)CCCC2        inhibition     -16.8
2  O=C(Nc1ccc2nc3n(c(=O)c2c1)CCCCC3)c1ccccc1Cl        inhibition     -2.99

Query: inhibition; subject: COc1cccc(CN(C)CC2CCCN(CCc3ccc(Cl)cc3)C2)c1OC (stereo not given)
-0.785
